- System: Plasmodium falciparum
- assaySummary: In vitro antimalarial activity against Plasmodium falciparum D6 Sierra Leone
- Assay type: functional, organism-based

compound	IC50
COC(=O)CCCO[C@H]1O[C@@H]2OC3(C)CC[C@H]4[C@H](C)CC[C@@H]([C@H]1C)[C@@]24OO3 (single isomer, unassigned)	3.06 ng/mL
C[C@H]1[C@@H](OCc2ccc(C(=O)O)cc2)O[C@@H]2OC3(C)CC[C@H]4[C@H](C)CC[C@@H]1[C@@]24OO3 (single isomer, unassigned)	1.74 ng/mL
CCOC(=O)CO[C@H]1O[C@@H]2OC3(C)CC[C@H]4[C@H](C)CC[C@@H]([C@H]1C)[C@@]24OO3 (single isomer, unassigned)	0.6 ng/mL
C[C@H]1[C@@H](OCC(=O)O)O[C@@H]2OC3(C)CC[C@H]4[C@H](C)CC[C@@H]1[C@@]24OO3 (single isomer, unassigned)	53.8 ng/mL
C[C@@H]1[C@H](OCc2ccc(C(=O)O)cc2)O[C@@H]2O[C@@]3(C)CC[C@@H]4[C@@H](C)CC[C@@H]1[C@]24OO3	4.07 ng/mL
C[C@H]1[C@@H](OCCC(=O)O)O[C@@H]2OC3(C)CC[C@H]4[C@H](C)CC[C@@H]1[C@@]24OO3 (single isomer, unassigned; 8b)	51.7 ng/mL
